target: LSD-1 enzyme (Homo sapiens (Human)); assay: biochemical

# compound, subject-of-test, IC50
measured = [
    ("COCC1(CN[C@@H]2C[C@H]2c2ccccc2)CCN(C(=O)N2CC(O)C2)CC1 [Example 111]", "LSD-1 enzyme (Homo sapiens (Human))", "< 100 nM"),
]

---

target: UniProt O60341
Recorded IC50 values for a group of molecules are listed next.
test-readout: IC50

# molecule, reported-value
measured = [
    ("COCC1(CN[C@@H]2C[C@H]2c2ccccc2)CCN(S(=O)(=O)c2ccnn2C)CC1", "< 100 nM"),
    ("N#Cc1cccc(CC2(CN[C@@H]3C[C@H]3c3ccccc3)CCN(C[C@H]3CC[C@H](C(=O)O)CC3)CC2)c1", "< 100 nM"),
    ("N#Cc1ccc(OCC2(CN[C@@H]3C[C@H]3c3ccccc3)CCN(CC3(C(=O)O)CC3)CC2)c(F)c1", "< 100 nM"),
    ("CC1(CN[C@@H]2C[C@H]2c2ccccc2)CCN(CC2(C(=O)O)CC2)CC1", "< 100 nM"),
    ("CCOCC1(CN[C@@H]2C[C@H]2c2ccccc2)CCN(CC2(C(=O)O)CCC2)CC1", "< 100 nM"),
    ("COCC1(CN[C@@H]2C[C@H]2c2ccccc2)CCN(C(=O)c2cnn(CCO)c2)CC1", "< 100 nM"),
    ("O=C(Nc1ccccc1F)N1CC(CN[C@@H]2C[C@H]2c2ccccc2)C1 (relative stereo)", "< 100 nM"),
    ("COCC1(CN[C@@H]2C[C@H]2c2ccccc2)CCN(C(=O)c2ccn(CCC#N)n2)CC1", "< 100 nM"),
    ("COCC1(CN[C@@H]2C[C@H]2c2ccccc2)CCN(C(=O)N2CCN(C)CC2)CC1", "< 100 nM"),
    ("O=C(N1CC(CNC2CC2c2ccccc2)C1)N1CCC[C@@]2(CCN(C3CCC(O)CC3)C2=O)C1 (stereo in doubt)", "< 100 nM"),
    ("O=C(O)C1(CN2CCC(CN[C@@H]3C[C@H]3c3ccccc3)(COC3CCCCC3)CC2)CCC1", "< 100 nM"),
    ("N#CCc1ccc(CC2(CN[C@@H]3C[C@H]3c3ccccc3)CCN(CC3(C(=O)O)CC3)CC2)cc1", "< 100 nM"),
    ("N#Cc1ccccc1OCC1(CN[C@@H]2C[C@H]2c2ccccc2)CCN(CC2(C(=O)O)CCC2)CC1", "< 100 nM"),
    ("COCC1(CN[C@@H]2C[C@H]2c2ccccc2)CCN(C(=O)N2CC[C@@H](O)C2)CC1", "< 100 nM"),
    ("N#Cc1ccc(OCC2(CN[C@@H]3C[C@H]3c3ccccc3)CCN(CC3(C(=O)O)CCC3)CC2)cc1", "< 100 nM"),
    ("O=C(O)C1(CN2CCC(CN[C@@H]3C[C@H]3c3ccccc3)(Cc3ccc(F)cn3)CC2)CC1", "< 100 nM"),
    ("N#Cc1ccc(CC2(CN[C@@H]3C[C@H]3c3ccccc3)CCN(CC3(C(=O)O)CC3)CC2)c(F)c1", "< 100 nM"),
    ("N#Cc1cccc(OCC2(CN[C@@H]3C[C@H]3c3ccccc3)CCN(CC3(C(=O)O)CCC3)CC2)c1", "< 100 nM"),
    ("O=C(c1ccc(F)cc1)N1CC(CN[C@@H]2C[C@H]2c2ccccc2)C1 (relative stereo)", "< 100 nM"),
    ("COCC1(CN[C@@H]2C[C@H]2c2ccccc2)CCN(CC2(C(=O)O)CCCC2)CC1", "< 100 nM"),
    ("COc1ccc(NC(=O)N2CC(CN[C@@H]3C[C@H]3c3ccccc3)C2)cc1 (relative stereo)", "< 100 nM"),
    ("Fc1ccc(CN2CCC(N[C@@H]3C[C@H]3c3ccccc3)CC2)cc1 (relative stereo)", "< 100 nM"),
    ("COc1cccc(CN2CCC(CN[C@@H]3C[C@H]3c3ccccc3)(Cc3cccc(C(=O)O)c3)CC2)c1", "< 100 nM"),
    ("CC1(CN[C@@H]2C[C@H]2c2ccccc2)CCN(C(=O)c2ccc(N)nn2)CC1", "< 100 nM"),
    ("Cn1cnc(C(=O)N2CCC(C)(CN[C@@H]3C[C@H]3c3ccccc3)CC2)c1", "< 100 nM"),
    ("COCC1(CN[C@@H]2C[C@H]2c2ccccc2)CCN(CC2(C(=O)O)CC2)CC1", "< 100 nM"),
    ("COCC1(C(C)N[C@@H]2C[C@H]2c2ccccc2)CCN(CC2(C(=O)O)CCC2)CC1 (stereo partly shown)", "< 100 nM"),
    ("CC1(CN[C@@H]2C[C@H]2c2ccccc2)CCN(CC2(C(=O)O)CCC2)CC1", "< 100 nM"),
]

Just for reference, patent US9670210B2 is where these values come from.
